test: Release rates of active agents from Tecophilic, Tecoflex and Carbothane polyurethane implants (Example 6); format: physicochemical; details: Tecoflex EG 100A, F.M.: 10,000
Structures can show the parent of a compound that is named as a salt.
Endpoint: non-normalized release rate (µg/day)
Numbers only, in µg/day.

// worked examples, non-normalized release rate included
{"Compound": "Cc1nc2n(c(=O)c1CCN1CCC(c3noc4cc(F)ccc34)CC1)CCCC2", "Measured": 8}
{"Compound": "C#CCN(C)[C@H](C)Cc1ccccc1 [Selegiline HCL]", "Measured": 14}
{"Compound": "O=C1CC[C@@]2(O)[C@H]3Cc4ccc(O)c5c4[C@@]2(CCN3CC2CC2)[C@H]1O5 [Naltrexone Base]", "Measured": 55}
{"Compound": "Clc1cccc(Cl)c1N=C1NCCN1", "Measured": 175}
{"Compound": "CCNC(=O)[C@@H]1CCCN1C(=O)[C@H](CCCNC(=N)N)NC(=O)[C@H](CC(C)C)NC(=O)[C@@H](Cc1cn(Cc2ccccc2)cn1)NC(=O)[C@H](Cc1ccc(O)cc1)NC(=O)[C@H](CO)NC(=O)[C@H](Cc1c[nH]c2ccccc12)NC(=O)[C@H](Cc1cnc[nH]1)NC(=O)[C@@H]1CCC(=O)N1 [Histrelin Acetate]", "Measured": 0.5}

Req: Give the measured non-normalized release rate of Cc1ccccc1N1C(=O)c2cc(S(N)(=O)=O)c(Cl)cc2NC1C (stereo not drawn) .
Resp: 5.5

---

assay: Release rates of active agents from Tecophilic, Tecoflex and Carbothane polyurethane implants (Example 6); type: physicochemical; settings: Carbothane PC-3595A, F.M.: 4,500
Would you kindly list non-normalized release rate for each of these compounds?
One number for each entry, in µg/day.

{"Compound": "Cc1ccccc1N1C(=O)c2cc(S(N)(=O)=O)c(Cl)cc2NC1C (stereo not drawn)", "non-normalized release rate / µg/day": 6.1}

# batch size: 2; output non-normalized release rate per entry
1. Clc1cccc(Cl)c1N=C1NCCN1
2. Cc1nc2n(c(=O)c1CCN1CCC(c3noc4cc(F)ccc34)CC1)CCCC2

Resp:
270
11

---

assay: Release rates of active agents from Tecophilic, Tecoflex and Carbothane polyurethane implants (Example 6); format: physicochemical; conditions: Carbothane PC-3595A, F.M.: 4,500
Where a name gives a salt, the structure may show the parent alone.
Endpoint: non-normalized release rate (µg/day)
Numbers only, in µg/day.

// worked examples, non-normalized release rate included
{"Compound": "C#CCN(C)[C@H](C)Cc1ccccc1 [Selegiline HCL]", "Quantity Unit": "µg/day", "non-normalized release rate": 30}
{"Compound": "CCNC(=O)[C@@H]1CCCN1C(=O)[C@H](CCCNC(=N)N)NC(=O)[C@H](CC(C)C)NC(=O)[C@@H](Cc1cn(Cc2ccccc2)cn1)NC(=O)[C@H](Cc1ccc(O)cc1)NC(=O)[C@H](CO)NC(=O)[C@H](Cc1c[nH]c2ccccc12)NC(=O)[C@H](Cc1cnc[nH]1)NC(=O)[C@@H]1CCC(=O)N1 [Histrelin Acetate]", "Quantity Unit": "µg/day", "non-normalized release rate": 0.4}

Now take the following compound into account.
Req: Give the measured non-normalized release rate of O=C1CC[C@@]2(O)[C@H]3Cc4ccc(O)c5c4[C@@]2(CCN3CC2CC2)[C@H]1O5 [Naltrexone Base] .
Resp: 25
